system: RH-41 (Rhabdomyosarcoma); test: Bliss excess, mean over the matrix (fraction); higher = more synergy
As shown below, each of these molecules has a reported Bliss excess value.
Please reply with the number alone, leaving off any unit.

Example results:
# Molecule, Test Value
rows = [
    ("CC1(C)CCC(CN2CCN(c3ccc(C(=O)NS(=O)(=O)c4ccc(NCC5CCOCC5)c([N+](=O)[O-])c4)c(Oc4cnc5[nH]ccc5c4)c3)CC2)=C(c2ccc(Cl)cc2)C1 [Venetoclax] + C1CN(CCC1(C(=O)N[C@@H](CCO)C2=CC=C(C=C2)Cl)N)C3=NC=NC4=C3C=CN4 [Capivasertib] (first compound max 1 µM, 7x7, partner max 3 µM)", 0.0441),
    ("Cc1c2c(nn1C)CSCc1cc(n(C)n1)CSc1cc(c3ccccc3c1)OCCCc1c(C(=O)O)n(C)c3c-2c(Cl)ccc13 [AZD5991] + CC1(C)CCC(CN2CCN(c3ccc(C(=O)NS(=O)(=O)c4ccc(NCC5CCOCC5)c([N+](=O)[O-])c4)c(Oc4cnc5[nH]ccc5c4)c3)CC2)=C(c2ccc(Cl)cc2)C1 [Venetoclax] (first compound max 1 µM, 7x7, partner max 1 µM)", 0.0582),
    ("Cc1c2c(nn1C)CSCc1cc(n(C)n1)CSc1cc(c3ccccc3c1)OCCCc1c(C(=O)O)n(C)c3c-2c(Cl)ccc13 [AZD5991] + CN(C)CCCOc1ccc(-c2ccc3ncc4c(c3c2)n(C2CCOCC2)c(=O)n4C)cn1 [AZD0156] (first compound max 1 µM, 7x7, partner max 1 µM)", 0.0044),
]

Next item in the queue.
## Task Tell me its Bliss excess given CN(C)CCCOc1ccc(-c2ccc3ncc4c(c3c2)n(C2CCOCC2)c(=O)n4C)cn1 [AZD0156] + O=C(c1cc(Cc2n[nH]c(=O)c3ccccc23)ccc1F)N1CCN(C(=O)C2CC2)CC1 [Olaparib] (first compound max 3 µM, partner max 3 µM) as the entry.
## Result 0.0128

###

test system: KP-N-YN (Neuroblastoma); assay: Bliss excess, mean over the matrix (fraction); higher = more synergy
Observable: Bliss excess
Give only the figure.

# Compound, Bliss excess
rows = [
    ("COc1cccc(OCCCN)c1-c1cc(Nc2cnc(C#N)cn2)n[nH]1 [Prexasertib] + Cc1cc2ncnn2cc1Nc1ncc2c(n1)n(C1CCOCC1)c(=O)n2C [AZD7648] (first compound max 1 µM, 7x7, partner max 10 µM)", -0.0221),
]

Continue with the compound presented below.
## Task GET Bliss excess where system = KP-N-YN (Neuroblastoma) and item = CS(=O)(=O)CCNCc1ccc(-c2ccc3ncnc(Nc4ccc(OCc5cccc(F)c5)c(Cl)c4)c3c2)o1 [Lapatinib] + NC1(c2ccc(-c3nc4ccn5c(=O)[nH]nc5c4cc3-c3ccccc3)cc2)CCC1 [MK-2206] (first compound max 10 µM, 7x7, partner max 10 µM)
## Result 0.0876

###

Overview of recorded combination Emax for various compounds
test system: LU-165 (Small Cell Lung Carcinoma); experiment: combination Emax (second highest fraction inhibited in the dose matrix, 72 h); higher = more inhibition; extreme values may be limits of the assay
Provide a numeric answer; units are not to be included.

# Compound, Observable, Test Value
records = [
    ("CN(CCO)CC[C@H](CSc1ccccc1)Nc1ccc(S(=O)(=O)NC(=O)c2ccc(N3CCC([C@@H](O)c4ccccc4-c4ccc(Cl)cc4)CC3)cc2)cc1S(=O)(=O)C(F)(F)F [AZD4320] + C[C@@H]1COCCN1C2=NC(=NC(=C2)C3(CC3)[S@](=N)(=O)C)C4=C5C=CNC5=NC=C4 [AZD6738] (first compound max 1 µM, 7x7, partner max 10 µM)", "combination Emax", 0.776),
]

Now examine the next entry.
## Task // fetch combination Emax given entry Cc1nc(Nc2ncc(C(=O)Nc3c(C)cccc3Cl)s2)cc(N2CCN(CCO)CC2)n1 [Dasatinib] + CC(=O)Nc1cccc(-n2c(=O)n(C3CC3)c(=O)c3c(Nc4ccc(I)cc4F)n(C)c(=O)c(C)c32)c1 [Trametinib] (first compound max 2 µM, 7x7, partner max 1 µM)
## Result 0.144
